# protocol-notes: Metabolic stability in rat plasma at 2 mM measured upto 1440 mins by UV/LC-MS analysis
# Assay type: ADME, cell-free
# condition-parameters: read-out: Stability
endpoint: remaining at 24 h, 2000 µM

Problem: Would you mind telling me what remaining at 24 h, 2000 µM value was observed for O=C(Nc1sc2c(c1C(=O)Nc1ccccc1O)CCCCC2)c1ccc([N+](=O)[O-])cc1O ?
Solution: ~100%

###

Would you mind telling me the reported Papp at 5 h of each entry?
# protocol-notes: Apparent permeability of compound incubated for 5 hrs by PAMPA
# Format: ADME

Problem: If you can, please state the reported Papp at 5 h value of O=C(Nc1sc2c(c1C(=O)Nc1ccccc1O)CCCCC2)c1ccc([N+](=O)[O-])cc1O .
Solution: 0.78 ×10⁻⁶ cm/s

Problem: Could you share which Papp at 5 h value was measured for N#Cc1ccc(C(=O)Nc2sc3c(c2C(=O)Nc2ccccc2O)CCCCC3)cc1 ?
Solution: 3.48 ×10⁻⁶ cm/s

###

# protocol-notes: Metabolic stability in rat plasma at 2 mM measured for 5 to 60 mins by UV/LC-MS analysis
# Type: ADME, cell-free
# condition-parameters: time 5-60 min, read-out: Stability
endpoint: remaining at 2000 µM (%)
Answer with a number only, understood to be in %.

Problem: Tell me the measured remaining at 2000 µM of N#Cc1ccc(C(=O)Nc2sc3c(c2C(=O)Nc2ccccc2O)CCCCC3)cc1 , please.
Solution: 95

###

Give measured selectivity ratio for each item. Keep answers brief.
# protocol-notes: Selectivity index, ratio of CC50 for MDCK cells to EC50 for Influenza A virus PR/8/34 infected in MDCK cells
# Format: toxicity, cell-based
# condition-parameters: dog, read-out: Ratio CC50/EC50

Problem: Quick check: selectivity ratio of O=C(Nc1sc2c(c1C(=O)Nc1ccc(Br)cc1)CCCCC2)c1ccc([N+](=O)[O-])cc1 ?
Solution: > 78

Problem: So what does the record say about selectivity ratio for O=C(Nc1sc2c(c1C(=O)Nc1ccc(F)cc1)CCCCC2)c1ccc([N+](=O)[O-])cc1 ?
Solution: > 3

Problem: Which selectivity ratio is listed for O=C(Nc1sc2c(c1C(=O)Nc1ccccn1)CCCCC2)c1ccc(Cl)s1 ?
Solution: > 250

Problem: Would you kindly share the measured selectivity ratio for N#Cc1ccc(C(=O)Nc2sc3c(c2C(=O)Nc2ccccc2O)CCCCC3)cc1 ?
Solution: > 667

Problem: GET /values?readout=selectivity ratio&item= NC(=O)c1ncn([C@@H]2O[C@H](CO)[C@@H](O)[C@H]2O)n1 [RIBAVIRIN]
Solution: > 29

Problem: # lookup: selectivity ratio of N#Cc1ccc(C(=O)Nc2sc3c(c2C(=O)Nc2ccc(C(F)(F)F)cc2)CCCCC3)cc1
Solution: > 135

Problem: # lookup: selectivity ratio of O=C(Nc1sc2c(c1C(=O)Nc1ccc(C(F)(F)F)cc1)CCCCC2)c1ccc([N+](=O)[O-])cc1
Solution: > 250

Problem: Query: selectivity ratio; subject: O=C(Nc1sc2c(c1C(=O)Nc1ccc(OC(F)F)cc1)CCCCC2)c1ccc([N+](=O)[O-])cc1
Solution: > 93

Problem: So what's the measured selectivity ratio for this one? O=C(Nc1sc2c(c1C(=O)Nc1ccc(OC(F)(F)F)cc1)CCCCC2)c1ccc([N+](=O)[O-])cc1
Solution: > 54

Problem: Request the reported selectivity ratio associated with O=C(Nc1sc2c(c1C(=O)Nc1ccccn1)CCCCC2)c1ccc([N+](=O)[O-])cc1O
Solution: 144

Problem: Sample O=C(Nc1sc2c(c1C(=O)Nc1ccc(C(F)(F)F)cc1)CCCCC2)c1ccccc1O — what was its selectivity ratio?
Solution: > 455

Problem: Endpoint output: selectivity ratio of O=C(Nc1sc2c(c1C(=O)Nc1ccccn1)CCCCC2)c1ccc([N+](=O)[O-])cc1 . Value?
Solution: > 1090

Problem: Value lookup for selectivity ratio; key = O=C(Nc1sc2c(c1C(=O)Nc1ccccc1O)CCCCC2)c1ccc([N+](=O)[O-])cc1
Solution: 192

Problem: // selectivity ratio lookup, key: O=C(Nc1sc2c(c1C(=O)Nc1ccc(C(F)(F)F)cc1)CCCCC2)c1ccc(Cl)s1
Solution: > 74

Problem: So what's the measured selectivity ratio for this one? O=C(Nc1sc2c(c1C(=O)Nc1ccccc1O)CCCCC2)c1ccc([N+](=O)[O-])cc1O
Solution: 2520

Problem: Could you tell me which selectivity ratio is on file for O=C(Nc1sc2c(c1C(=O)Nc1ccccc1O)CCCCC2)c1ccccc1O ?
Solution: 143

Problem: Return reported selectivity ratio; argument: O=C(Nc1sc2c(c1C(=O)Nc1ccc(Cl)cc1)CCCCC2)c1ccc(Cl)s1
Solution: > 4

Problem: # get_value(readout='selectivity ratio', item= O=C(Nc1sc2c(c1C(=O)Nc1nccs1)CCCCC2)c1ccc(Cl)s1 )
Solution: > 2940

Problem: What does the record list as selectivity ratio for O=C(Nc1sc2c(c1C(=O)Nc1ccccn1)CCCCC2)c1ccc2c(c1)COC2=O ?
Solution: > 6

Problem: Returns the measured selectivity ratio for the input molecule. Input: NC(=O)c1nc(F)cnc1O
Solution: > 32

Problem: Sample N#Cc1ccc(C(=O)Nc2sc3c(c2C(=O)Nc2ccc(Cl)cc2)CCCCC3)cc1 — what was its selectivity ratio?
Solution: > 368

Problem: Please look up its selectivity ratio: N#Cc1ccc(C(=O)Nc2sc3c(c2C(=O)Nc2ccccn2)CCCCC3)cc1
Solution: 88

Problem: // returns reported selectivity ratio for input O=C(Nc1sc2c(c1C(=O)Nc1ccccc1O)CCCCC2)c1ccc(Cl)s1
Solution: 79

Problem: Any idea what its selectivity ratio is? The molecule is O=C(Nc1sc2c(c1C(=O)Nc1ccc(Cl)cc1)CCCCC2)c1ccc([N+](=O)[O-])cc1
Solution: > 192

Problem: Endpoint output: selectivity ratio of O=C(Nc1sc2c(c1C(=O)Nc1nccs1)CCCCC2)c1ccc([N+](=O)[O-])cc1 . Value?
Solution: > 1320
